# Test system: Zymoseptoria tritici (the causal agent of wheat leaf blotch)
# assay-method-text: Test B: preventive spray on wheat seedlings, wheat leaf blotch, visual disease rating
# Format: in vivo
# condition-notes: test suspension 250 ppm; wheat seedlings
Marks after values point to notes of the source that are not given here.
What Test B disease control rating was measured for each of the following?

                                   molecule                     value_type  value_reported
0  CCOC(=O)c1cnn(C(C)c2ccc(-c3noc(C(F)(F)F)n3)s2)c1 (stereo not drawn)  Test B disease control rating           99* %
1  N#Cc1coc(Cc2ccc(-c3noc(C(F)(F)F)n3)cc2)n1  Test B disease control rating           98* %
2  Cc1nc(COc2ccc(-c3noc(C(F)(F)F)n3)cc2)cs1  Test B disease control rating           73* %
3  CCOC(=O)c1csc(Cc2ccc(-c3noc(C(F)(F)F)n3)s2)n1  Test B disease control rating             28%
4  C=CCOC(=O)c1cnn(CCCc2ccc(-c3noc(C(F)(F)F)n3)cc2)c1  Test B disease control rating           99* %
5  FC(F)(F)c1nc(-c2ccc(OCc3cn4ccccc4n3)cc2)no1  Test B disease control rating           14* %
6        FC(F)(F)c1nc(-c2ccc(CNC3CC3)s2)no1  Test B disease control rating           96* %
7  COC(=O)c1ccc(CCn2cc(-c3noc(C(F)(F)F)n3)cn2)cc1  Test B disease control rating            0* %

Let's switch to this molecule now.
Zymoseptoria tritici (the causal agent of wheat leaf blotch) / Test B disease control rating / N#Cc1cnn(CCCc2ccc(-c3noc(C(F)(F)F)n3)cc2)c1 : value? 99* %

----------
# Test system: Zymoseptoria tritici (the causal agent of wheat leaf blotch)
# assay-method-text: Test B: preventive spray on wheat seedlings, wheat leaf blotch, visual disease rating
# Format: in vivo
# condition-notes: test suspension 250 ppm; wheat seedlings
Marks after values point to notes of the source that are not given here.
Kindly supply the reported Test B disease control rating values for the records listed here.

>>> df
                              sample_smiles                     value_type  value_reported
0  CCOC(=O)c1coc(Cc2ccc(-c3noc(C(F)(F)F)n3)cc2)n1  Test B disease control rating           92* %
1  O=C(NCC(F)(F)C(F)(F)F)c1coc(Cc2ccc(-c3noc(C(F)(F)F)n3)cc2)n1  Test B disease control rating            0* %
2  CCNC(=O)c1ccc(COc2ccc(-c3noc(C(F)(F)F)n3)cc2)s1  Test B disease control rating            0* %

Now, please, on to the next compound.
State the recorded Test B disease control rating for this entry: O=C(NCc1nccs1)c1coc(Cc2ccc(-c3noc(C(F)(F)F)n3)cc2)n1 99* %

----------
# Test system: Zymoseptoria tritici (the causal agent of wheat leaf blotch)
# assay-method-text: Test B: preventive spray on wheat seedlings, wheat leaf blotch, visual disease rating
# Format: in vivo
# condition-notes: test suspension 250 ppm; wheat seedlings
value-type: Test B disease control rating (%)
One number for each entry, in %.

Illustrative cases are given below, each with its answer.
In [3]: df
Out[3]:
                                   compound  value_reported
0  FC(F)(F)c1ccn(Cc2ccc(-c3noc(C(F)(F)F)n3)cc2)n1 [compound 153]               0
1  O=c1oc2ccccc2n1Cc1ccc(-c2noc(C(F)(F)F)n2)cc1 [compound 118]               0

Now let's try a different one.
If you can, please state the reported Test B disease control rating value of CN(C)N=Cc1cnn(Cc2ccc(-c3noc(C(F)(F)F)n3)cc2)c1 [compound 19] . 100
